# assay.notes: Selectivity index, ratio of CC50 for African green monkey Vero cells to IC50 for chloroquine-resistant Plasmodium falciparum K1 asynchronous cultures infected in human erythrocytes
# Assay type: toxicity, cell-based
# details: read-out: Ratio CC50/IC50
Listed here: items and their measured selectivity ratio.
Please give only the number in your answer, with no unit.

// solved cases for selectivity ratio follow
[
  {
    "smiles.str": "CC(=O)OC[C@H]1O[C@@H](CC(=O)/C=C2\\C(=O)N(Cc3cccc(C)c3)c3ccccc32)[C@H](OC(C)=O)[C@@H](OC(C)=O)[C@@H]1OC(C)=O",
    "selectivity ratio": 242
  },
  {
    "smiles.str": "CCCCN1C(=O)/C(=C\\C(=O)C[C@@H]2O[C@H](COC(C)=O)[C@@H](OC(C)=O)[C@H](OC(C)=O)[C@H]2OC(C)=O)c2cc(Cl)ccc21",
    "selectivity ratio": 404
  },
  {
    "smiles.str": "CC(=O)OC[C@H]1O[C@@H](CC(=O)/C=C2\\C(=O)N(CCc3ccccc3)c3ccccc32)[C@H](OC(C)=O)[C@@H](OC(C)=O)[C@@H]1OC(C)=O",
    "selectivity ratio": 86.2
  }
]

Quick one: selectivity ratio for CC(=O)OC[C@H]1O[C@@H](CC(=O)/C=C2\C(=O)N(Cc3cccc(C)c3)c3ccc(Cl)cc32)[C@H](OC(C)=O)[C@@H](OC(C)=O)[C@@H]1OC(C)=O ?
87.5
